test: Stability in liver microsomes; type: in vitro ADME; details: 2 μM peptidomimetic, human liver microsomes, 37° C., 24 h
measure-name: % degradation of peptidomimetics in 24 h when incubated with liver microsomes (%)

>>> measured_result("CCc1cc(OC)ccc1-c1ccc(CC(NC(=O)[C@H](CC(=O)O)NC(=O)[C@H](CO)NC(=O)[C@@H](NC(=O)C(C)(Cc2ccccc2F)NC(=O)[C@@H](NC(=O)CNC(=O)C(CCC#N)NC(=O)C(C)(C)NC(=O)[C@@H](N)Cc2c[nH]cn2)[C@H](C)O)[C@H](C)O)C(=S)NC(CCCc2ccccc2)C(N)=O)cc1 (single isomer, unassigned) [compound 166]")
77
>>> measured_result("CCc1cc(OC)ccc1-c1ccc(CC(NC(=O)[C@H](CC(=O)O)NC(=O)[C@H](CO)NC(=O)[C@@H](NC(=O)C(C)(Cc2ccccc2F)NC(=O)[C@@H](NC(=O)CNC(=O)C(CCC#N)NC(=O)C(C)(C)NC(=O)[C@H](Cc2c[nH]cn2)NC(=O)OC)[C@@H](C)O)[C@@H](C)O)C(=O)NC(CCCc2ccccc2F)C(N)=O)cc1 (single isomer, unassigned) [compound 208]")
100

* * *

Reported values of half-life at 2 μM for individual entries
assay: Stability in simulated gastric fluid; format: in vitro ADME; settings: 2 μM peptidomimetic, simulated gastric fluid pH 1.5, 37° C.; read-out: half-life (t1/2) when incubated with simulated gastric fluid
measure-name: half-life at 2 μM (h)

>>> measured_result("CCc1cc(OC)ccc1-c1ccc(CC(NC(=O)[C@H](CC(=O)O)NC(=O)[C@H](CO)NC(=O)[C@@H](NC(=O)C(C)(Cc2ccccc2F)NC(=O)[C@@H](NC(=O)CNC(=O)C(CCC#N)NC(=O)C(C)(C)NC(=O)[C@@H](N)Cc2c[nH]cn2)[C@H](C)O)[C@H](C)O)C(=O)NC(CCCc2ccccc2)C(N)=O)cc1 (single isomer, unassigned) [compound 114]")
4
>>> measured_result("CCc1cc(OC)ccc1-c1ccc(CC(CNC(CCCc2ccccc2)C(N)=O)NC[C@H](CC(=O)O)NC(=O)[C@H](CO)NC(=O)[C@@H](NC(=O)C(C)(Cc2ccccc2F)NC(=O)[C@@H](NC(=O)CNC(=O)[C@H](CCC(N)=O)NC(=O)C(C)(C)NC(=O)[C@@H](N)Cc2c[nH]cn2)[C@H](C)O)[C@H](C)O)cc1 (single isomer, unassigned) [compound 201]")
4
>>> measured_result("CCc1cc(OC)ccc1-c1ccc(CC(CNC(CCCc2ccccc2)C(N)=O)NC[C@H](CC(=O)O)NC(=O)[C@H](CO)NC(=O)[C@@H](NC(=O)C(C)(Cc2ccccc2F)NC(=O)[C@@H](NC(=O)CNC(=O)[C@H](CCC(N)=O)NC(=O)C(C)(C)NC(=O)[C@H](Cc2c[nH]cn2)NC(=O)OC)[C@H](C)O)[C@H](C)O)cc1 (single isomer, unassigned) [compound 198]")
4
>>> measured_result("CCc1cc(OC)ccc1-c1ccc(CC(NC(=O)[C@H](CC(=O)O)NC(=O)[C@H](CO)NC(=O)[C@@H](NC(=O)C(C)(Cc2ccccc2F)NC(=O)[C@@H](NC(=O)CNC(=O)C(CCC#N)NC(=O)C(C)(C)NC(=O)[C@@H](N)Cc2c[nH]cn2)[C@H](C)O)[C@@H](C)O)C(=O)NC(CCCc2ccccc2F)C(N)=O)cc1 (single isomer, unassigned) [compound 112]")
4
>>> measured_result("CCc1cc(OC)ccc1-c1ccc(CC(CNC(CCCc2ccccc2)C(N)=O)NC[C@H](CC(=O)O)NC(=O)[C@H](CO)NC(=O)[C@@H](NC(=O)C(C)(Cc2ccccc2F)NC(=O)[C@@H](NC(=O)CNC(=O)[C@H](CCC(N)=O)NC(=O)C(C)(C)NC(=O)[C@H](Cc2c[nH]cn2)NC(=O)OC)[C@@H](C)O)[C@@H](C)O)cc1 (single isomer, unassigned) [compound 194]")
4
>>> measured_result("CCc1cc(OC)ccc1-c1ccc(CC(NC(=O)[C@H](CC(=O)O)NC(=O)[C@H](CO)NC(=O)[C@@H](NC(=O)C(C)(Cc2ccccc2F)NC(=O)[C@@H](NC(=O)CNC(=O)[C@H](CC(C(F)(F)F)C(F)(F)F)NC(=O)C(C)(C)NC(=O)[C@H](Cc2c[nH]cn2)NC(C)=O)[C@@H](C)O)[C@@H](C)O)C(=O)NC(CCCc2ccccc2)C(N)=O)cc1 (single isomer, unassigned) [compound 210]")
0.5
